Experiment: Acute toxicity in mice
Details: mouse, in vivo, ip, mice, i.p., 24 hours; read-out: Dose range causing death in 50% of the animals
property.measured: LD50 at 24 h

The value of LD50 at 24 h measured for the molecule O=C(O)CCC(=O)O.c1cc2n(c1)CCNC2 [Compound 1] turned out to be 500 to 1000 mg/kg

---

Test: Acute toxicity in mice
Settings: mouse, in vivo, ip, mice, i.p., lethality 24 hours later, Table 6 (range in brackets beside); read-out: LD50
Threshold-based label: LD50 at 24 h under 400 mg/kg gives Satisfied, LD50 at 24 h not under 400 mg/kg gives Not satisfied.

O=C(O)C(=O)O.O=C(c1ccccc1)N1CCn2c(CN3CCOCC3)ccc2C1 | Satisfied
CC(=O)N1CCn2c(CN3CCCCC3)ccc2C1 | Not satisfied
CC(=O)N1CCn2c(CN3CCOCC3)ccc2C1 | Satisfied
O=C(O)CCC(=O)O.c1cc2n(c1)CCNC2 | Not satisfied
CN(C)Cc1ccc2n1CCN(C(=O)c1ccccc1)C2 | Satisfied

Here is the next item to consider.
Query: Please check: LD50 at 24 h for CC(=O)N1CCn2c(CN(C)C)ccc2C1 , strictly under 400 mg/kg or not?
Reply: Satisfied
